# Tested on: Mus musculus
# experimentalProtocol: Ability to inhibit the incorporation of [5-3H]-mevalonolactone into cholesterol by in vivo mouse assay by peroral administration at a dose of 24 mg/kg
# Format: functional
# recordedConditions: route oral
Please mark Y if the recorded inhibition in vivo at 24 mg/kg is equal to or greater than 10%, and N if it falls below.

- molecule: "C=C(CCC12OC(C(=O)O)C(O)(C(=O)O)C(C(=O)O)(O1)[C@H](OC(=O)CCC)[C@H]2O)[C@@H](OC(=O)CC)[C@H](C)Cc1ccccc1 (some centres undefined)"
  targetUnderTest: "Mus musculus"
  className: "Y"
- molecule: "CCCC(=O)O[C@@H]1[C@@H](O)C2(CCCCCCc3ccccc3)OC(C(=O)O)C(O)(C(=O)O)C1(C(=O)O)O2 (some centres undefined)"
  targetUnderTest: "Mus musculus"
  className: "N"
- molecule: "C=C(CCC12OC(C(=O)O)C(O)(C(=O)O)C(C(=O)O)(O1)[C@H](OC(=O)OCCC[C@@H](C)C[C@@H](C)CC)[C@H]2O)[C@@H](OC(C)=O)[C@H](C)Cc1ccccc1 (some centres undefined)"
  targetUnderTest: "Mus musculus"
  className: "N"
- molecule: "C=C(CCC12OC(C(=O)O)C(O)(C(=O)O)C(C(=O)O)(O1)[C@H](OC(=O)/C=C/[C@@H](C)C[C@@H](C)CC)[C@H]2O)[C@@H](OC(=O)CC)[C@H](C)Cc1ccccc1 (some centres undefined)"
  targetUnderTest: "Mus musculus"
  className: "N"
- molecule: "CC[C@H](C)C[C@H](C)CCC(=O)O[C@@H]1[C@@H](O)C2(CCCCCCc3ccccc3)OC(C(=O)O)C(O)(C(=O)O)C1(C(=O)O)O2 (some centres undefined)"
  targetUnderTest: "Mus musculus"
  className: "N"
- molecule: "C=C(CCC12OC(C(=O)O)C(O)(C(=O)O)C(C(=O)O)(O1)[C@H](OC(=O)NCCCCCCCCCC)[C@H]2O)[C@@H](OC(C)=O)[C@H](C)Cc1ccccc1 (some centres undefined)"
  targetUnderTest: "Mus musculus"
  className: "N"
- molecule: "C=C(CCC12OC(C(=O)O)C(O)(C(=O)O)C(C(=O)O)(O1)[C@H](OC(=O)CCC)[C@H]2O)[C@@H](OC(=O)CCC)[C@H](C)Cc1ccccc1 (some centres undefined)"
  targetUnderTest: "Mus musculus"
  className: "N"
- molecule: "CC(/C=C/CCC(=O)O[C@@H]1[C@@H](O)C2(CCCCC(C)Cc3ccccc3)OC(C(=O)O)C(O)(C(=O)O)C1(C(=O)O)O2)CCCc1ccccc1 (some centres undefined)"
  targetUnderTest: "Mus musculus"
  className: "N"
- molecule: "C=C(CCC12OC(C(=O)O)C(O)(C(=O)O)C(C(=O)O)(O1)[C@H](OC(=O)OCCCCCCCCCC)[C@H]2O)[C@@H](OC(C)=O)[C@H](C)Cc1ccccc1 (some centres undefined)"
  targetUnderTest: "Mus musculus"
  className: "Y"
- molecule: "C=C(CCC12OC(C(=O)O)C(O)(C(=O)O)C(C(=O)O)(O1)[C@H](OC(=O)NCCCCCCCCCCCOc1ccccc1)[C@H]2O)[C@@H](OC(C)=O)[C@H](C)Cc1ccccc1 (some centres undefined)"
  targetUnderTest: "Mus musculus"
  className: "Y"
- molecule: "C=C(CCC12OC(C(=O)O)C(O)(C(=O)O)C(C(=O)O)(O1)[C@H](OC(=O)NCCCCCCCCCCCC)[C@H]2O)[C@@H](OC(C)=O)[C@H](C)Cc1ccccc1 (some centres undefined)"
  targetUnderTest: "Mus musculus"
  className: "N"
- molecule: "C=C(CCC12OC(C(=O)O)C(O)(C(=O)O)C(C(=O)O)(O1)[C@H](O)[C@H]2O)[C@@H](OC(C)=O)[C@H](C)Cc1ccccc1 (some centres undefined)"
  targetUnderTest: "Mus musculus"
  className: "Y"
- molecule: "C=C(CCC12OC(C(=O)O)C(O)(C(=O)O)C(C(=O)O)(O1)[C@H](OC(=O)NCCC[C@@H](C)C[C@@H](C)CC)[C@H]2O)[C@@H](OC(C)=O)[C@H](C)Cc1ccccc1 (some centres undefined)"
  targetUnderTest: "Mus musculus"
  className: "N"
- molecule: "C=C(CCC12OC(C(=O)O)C(O)(C(=O)O)C(C(=O)O)(O1)[C@H](OC(=O)NCCCCCCCCCCCCCC)[C@H]2O)[C@@H](OC(C)=O)[C@H](C)Cc1ccccc1 (some centres undefined)"
  targetUnderTest: "Mus musculus"
  className: "Y"
- molecule: "C=C(CCC12OC(C(=O)O)C(O)(C(=O)O)C(C(=O)O)(O1)[C@H](OC(=O)CCCCCCCCCCOc1ccccc1)[C@H]2O)[C@@H](OC(C)=O)[C@H](C)Cc1ccccc1 (some centres undefined)"
  targetUnderTest: "Mus musculus"
  className: "Y"
- molecule: "C=C(CCC12OC(C(=O)O)C(O)(C(=O)O)C(C(=O)O)(O1)[C@H](OC(=O)NCC13CC4CC(CC(C4)C1)C3)[C@H]2O)[C@@H](OC(C)=O)[C@H](C)Cc1ccccc1 (some centres undefined)"
  targetUnderTest: "Mus musculus"
  className: "N"
- molecule: "C=C(CCC12OC(C(=O)O)C(O)(C(=O)O)C(C(=O)O)(O1)[C@H](OC(=O)CCCCCCCCCCc1ccccc1)[C@H]2O)[C@@H](OC(C)=O)[C@H](C)Cc1ccccc1 (some centres undefined)"
  targetUnderTest: "Mus musculus"
  className: "Y"
- molecule: "C=C(CCC12OC(C(=O)O)C(O)(C(=O)O)C(C(=O)O)(O1)[C@H](OC(=O)CCCC)[C@H]2O)[C@@H](OC(C)=O)[C@H](C)Cc1ccccc1 (some centres undefined)"
  targetUnderTest: "Mus musculus"
  className: "Y"
- molecule: "C=C(CCC12OC(C(=O)O)C(O)(C(=O)O)C(C(=O)O)(O1)[C@H](OCCC[C@@H](C)C[C@@H](C)CC)[C@H]2O)[C@@H](OC(C)=O)[C@H](C)Cc1ccccc1 (some centres undefined)"
  targetUnderTest: "Mus musculus"
  className: "Y"
